system: HEK293; assay: Ability to block the uptake of [3H]NE (norepinephrine) in HEK-hNET cells; type: functional, cell-based; conditions: Homo sapiens
# reported pIC50; entries follow
Worth noting: pIC50 values are minus log10 of concentrations stated in mol/L.

# example entries with known answers
OC1(c2ccc(Cl)cc2)c2ccc3ccccc3c2C2=NCCN21 (configuration not stated)	7.89
OC1(c2ccc(Cl)cc2)c2ccccc2C2=NCCN21 (configuration not stated) [MAZINDOL]	8.31
OC1(c2ccc(Cl)cc2)c2ccc3ccccc3c2C2=NCCCN21 (configuration not stated)	7.28
OC1(c2ccc(Cl)cc2)c2ccccc2C2=NCCCN21 (configuration not stated)	8.31
OC1(c2ccc3ccccc3c2)c2ccccc2C2=NCCN21 (configuration not stated)	8.35
OC1(c2ccc(Cl)cc2)c2ccccc2C2=N[C@H]3CCCC[C@@H]3N21 (some centres not stated)	6.49

Could you now look at the following compound, please?
Give the reported pIC50 for OC1(c2ccc3ccccc3c2)c2ccc3ccccc3c2C2=NCCN21 (configuration not stated) (system: HEK293).
7.42
